Reference source: ChEMBL document CHEMBL3988442

Known Percent Effect of a selection of compounds
# Target: Aspartate--tRNA(Asp/Asn) ligase (Mycobacterium tuberculosis (strain ATCC 25618 / H37Rv))
# Assay explanation: Assay for Asp RNA synthetase-1 from Mycobacterium tuberculosis
# Assay type: functional
# Design: scale not given: in the data most compounds retested in dose-response had high values
# Measurement parameters: 30 µM

| Compound | Percent Effect / % |
| --- | --- |
| O=C1CSC(c2ccsc2)c2sccc2N1 (stereo unspecified) | 4.27 |
| CCC1=N[C@@]2(CC[C@@H]3CN(Cc4ccccc4F)C[C@@H]32)C(=O)N1CC | 3.79 |
| Cc1nc(C)n(CC2CCCN(c3ncnc4ccsc34)C2)n1 (stereo unspecified) | 0.756 |
| Cc1oc(-c2nc(C#N)c(N(C)C)o2)cc1S(=O)(=O)N1CCCC1 | 0.145 |
| O=C1CC(c2cccc(O)c2)c2c(c(C(=O)O)cn2-c2ccccc2)N1 (stereo unspecified) | 22.9 |
| c1ccc(CN2CCCC2Cn2cncn2)nc1 (stereo unspecified) | 3.85 |

* * *

# Target: Tyrosyl-tRNA synthetase, putative (Trypanosoma cruzi (strain CL Brener))
# Assay explanation: Trypanosoma cruzi tyrosyl tRNA synthetase (TcYRS) _High Tyrosine SOP
# Format: functional
# Design: scale not given: in the data most compounds retested in dose-response had high values
# Measurement parameters: 30 µM
Known Percent Effect of a selection of molecules

| Molecule | Readout units | Percent Effect |
| --- | --- | --- |
| O=C(c1cc(-n2cnnn2)ccc1Cl)N1CCC2(CC1)OCCO2 | % | 3.19 |
| O=C(NCC1CC1)[C@H]1C[C@@H]2[C@@H](C1)OCCN2Cc1cccnc1 | % | -1.04 |
| CC(C)N1CCOCC2(CN(Cc3ccccn3)CCO2)C1 (configuration not stated) | % | 6.35 |
| O=C(Nc1cccnc1)[C@H]1CN(Cc2nccs2)C[C@H]2OCC[C@@H]12 | % | -2.13 |
| COc1ccc(CN2C[C@@H]3OCCN(c4ncccn4)[C@@H]3C2)cc1 | % | 1.06 |
| COc1cc(CNCC(O)c2ccc(C)cc2)cc2c1OCCO2 (configuration not stated) | % | 6.93 |
| c1cnc(N2CCC3(CCN(CC4CCOC4)C3)CC2)nc1 (configuration not stated) | % | 2.63 |

* * *

# Target: Tyrosyl-tRNA synthetase, putative (Trypanosoma cruzi (strain CL Brener))
# Assay explanation: Trypanosoma cruzi tyrosyl tRNA synthetase (TcYRS) _High Tyrosine SOP
# Type: functional
# Set-up: scale not given: in the data most compounds retested in dose-response had high values
# Measurement parameters: 30 µM
Known Percent Effect of a selection of compounds
Attribute measured: Percent Effect

| Compound | Reported |
| --- | --- |
| COc1cccc(CNC(C)Cn2cccn2)c1OC (stereo unspecified) | 1.94% |
| O=C(c1cnn2c1OCCC2)N1CCC2(CC1)OCCO2 | 6.35% |
| Cc1cc(CN2C[C@@H]3COC[C@]3(CNC(=O)c3ccno3)C2)no1 | 3.24% |
| c1ccc(CN2CC[C@H]3CO[C@H](CNc4ncccn4)[C@H]3C2)nc1 | 2.08% |
| O=C(c1ccc2c(c1)COC2)N1CCC(Nc2ccccc2)CC1 | 6.8% |
| COCC(=O)NC(C)Cc1cccc(OC)c1 (stereo unspecified) | 10.3% |

* * *

# Target: Arginase-2, mitochondrial (Homo sapiens) (UniProt P78540)
# Sequence (P78540 whole entry): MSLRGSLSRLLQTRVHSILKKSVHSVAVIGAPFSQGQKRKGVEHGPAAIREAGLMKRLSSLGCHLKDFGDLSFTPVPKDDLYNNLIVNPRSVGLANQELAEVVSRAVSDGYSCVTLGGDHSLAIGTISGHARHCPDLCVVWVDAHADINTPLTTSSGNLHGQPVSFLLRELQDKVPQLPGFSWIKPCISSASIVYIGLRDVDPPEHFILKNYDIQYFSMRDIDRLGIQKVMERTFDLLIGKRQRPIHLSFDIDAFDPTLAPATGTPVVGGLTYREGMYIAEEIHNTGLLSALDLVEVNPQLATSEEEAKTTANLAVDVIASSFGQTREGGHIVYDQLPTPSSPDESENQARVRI
# Assay explanation: in vitro enzyme assay to detect the production of urea directly proportional to the activity of Arginase II
# Assay type: functional
# Design: scale not given: in the data most compounds retested in dose-response had high values
# Measurement parameters: 33.3 µM
Known Percent Effect of a selection of molecules
Attribute measured: Percent Effect (%)

| Molecule | Reported |
| --- | --- |
| O=C1N(c2cncnc2)CCC12CCCN(Cc1ccccn1)C2 (stereo unspecified) | 2.76 |
| CCN1CCC2(CC1)CC(Nc1ncccn1)CO2 (stereo unspecified) | 35.8 |
| COc1ccc(C(=O)C2CCCN(Cc3ccc(C)o3)C2)c(OC)c1 (stereo unspecified) | 1.75 |
| Fc1cnc(N2CCCC3(CCN(Cc4ccsc4)C3)C2)nc1 (stereo unspecified) | -5.26 |
| Cc1noc(C)c1CN1CC[C@@H]2O[C@@H](COCC(C)C)CC[C@@H]21 | -49.3 |
| Cc1nc(NCC2CC2)nc2c1COCC21CCN(C)C1 (stereo unspecified) | 46.4 |
